- System: human melanoma cell A375
- Measurement Protocol: Cell proliferation (MTT) assay, A375
- Type: cell-based
- Run Parameters: Homo sapiens, A-375, 48 h, read-out: IC50 A375, antiproliferative, MTT, 48 h exposure
// reported IC50 for each item listed
Measured Attribute: IC50 (µM)

> print(dat)
                           chem.smiles           measured.target  measured.attribute  result.units  recorded.number
1          O=S(=O)(F)/C=C/c1ccc(Br)cc1  human melanoma cell A375                IC50            µM             9.12
2        O=S(=O)(F)/C=C/c1cc(F)nc(F)c1  human melanoma cell A375                IC50            µM               58
3              O=S(=O)(F)/C=C/c1ccccc1  human melanoma cell A375                IC50            µM             5.21
4    O=S(=O)(F)/C=C/c1cccc(C(F)(F)F)c1  human melanoma cell A375                IC50            µM             10.4
5  CS(=O)(=O)c1cccc(/C=C/S(=O)(=O)F)c1  human melanoma cell A375                IC50            µM             7.89
6        O=S(=O)(F)/C=C/c1cc(O)cc(O)c1  human melanoma cell A375                IC50            µM             4.01

----------
- Tested on: human breast cancer cell MDA-MB-231
- Measurement Protocol: Cell proliferation (MTT) assay, MDA-MB-231
- Format: cell-based
- Run Parameters: antiproliferative, MTT, 48 h exposure; read-out: IC50 MDA-MB-231
pIC50: −log10 of the molar value.
// reported pIC50 for each item listed
Measured Attribute: pIC50

> print(dat)
                             chem.smiles  measured.attribute  recorded.number
1  O=S(=O)(F)/C=C/C=C/c1ccc(C(F)(F)F)cc1               pIC50             4.82
2        O=S(=O)(F)/C=C/C=C/c1ccc(Br)cc1               pIC50             4.68
3     O=S(=O)(F)/C=C/c1ccc(Oc2ccccc2)cc1               pIC50             4.50
4  CC(C)(C)c1ccc(/C=C/C=C/S(=O)(=O)F)cc1               pIC50             4.50
5        CC(=O)c1cccc(/C=C/S(=O)(=O)F)c1               pIC50             4.64
6              O=S(=O)(F)/C=C/c1ccccc1Cl               pIC50             4.45

----------
- Tested on: human melanoma cell A375
- Measurement Protocol: Cell proliferation (MTT) assay, A375
- Format: cell-based
- Run Parameters: Homo sapiens, A-375, 48 h, read-out: IC50 A375, antiproliferative, MTT, 48 h exposure
- Protocol: The antiproliferative activities evaluation was conducted by using a modified procedure as described in the literature. Briefly, target tumour cells were grown to log phase in RPMI 1640 medium supplemented with 10% fetal bovine serum. […] The absorbance at 570 nm of each well was measured using an ELISA plate reader. The data represented the mean of three experiments in triplicate and were expressed as means ± SD using Student’s test.
pIC50: −log10 of the molar value.
# binarize pIC50: threshold 5 inclusive, high side Satisfied, low side Not satisfied

> print(dat)
                                   molecule           measured.target   answer.label
1  O=S(=O)(F)/C=C/C=C/c1ccc2ccccc2c1 [Compound 55]  human melanoma cell A375      Satisfied
2  Cc1ccc(S(=O)(=O)n2cc(/C=C/S(=O)(=O)F)c3ccccc32)cc1 [Compound 44]  human melanoma cell A375      Satisfied
3  Cc1ccc(S(=O)(=O)n2c3ccccc3c3cc(/C=C/S(=O)(=O)F)ccc32)cc1 [Compound 46]  human melanoma cell A375      Satisfied
4  O=S(=O)(F)/C=C/C=C/c1ccccc1 [Compound 48]  human melanoma cell A375  Not satisfied

----------
- Tested on: human normal liver cell (L-02)
- Measurement Protocol: Proliferative inhibition assay of human normal cell L-02 (MTT)
- Type: cell-based
- Run Parameters: Homo sapiens, normal liver cells
pIC50: −log10 of the molar value.
// reported pIC50 for each item listed
Measured Attribute: pIC50

> print(dat)
                                   compound  measured.attribute  limit.qualifier  recorded.number
1  CC(=O)c1ccccc1/C=C/S(=O)(=O)F [Compound 25]               pIC50                =             2.61
2  O=S(=O)(F)/C=C/c1cccc(-c2ccccc2)c1 [Compound 75]               pIC50                =             2.61
3  O=Cc1ccc(/C=C/S(=O)(=O)F)cc1 [Compound 15]               pIC50                =             2.68
4  O=S(=O)(F)/C=C/c1ccc(-c2ccccc2)cc1 [Compound 5]               pIC50                =             2.88
5      O=S(=O)(F)/C=C/c1ccccc1 [Compound 1]               pIC50                =             2.71
6  O=S(=O)(F)/C=C/C=C/c1ccc(/C=C/S(=O)(=O)F)cc1 [Compound 57]               pIC50                >             2.70
7  Cc1ccc(S(=O)(=O)n2c3ccccc3c3cc(/C=C/S(=O)(=O)F)ccc32)cc1 [Compound 46]               pIC50                =             2.69
8  O=S(=O)(F)/C=C/c1ccc2ccccc2c1 [Compound 31]               pIC50                =             2.85

----------
- Tested on: human melanoma cell A375
- Measurement Protocol: Cell proliferation (MTT) assay, A375
- Type: cell-based
- Run Parameters: Homo sapiens, A-375, 48 h, read-out: IC50 A375, antiproliferative, MTT, 48 h exposure
Measured Attribute: IC50

> print(dat)
                               chem.smiles  measured.attribute   result
1  CC(C)S(=O)(=O)c1ccc(/C=C/S(=O)(=O)F)cc1                IC50  24.2 µM
2    O=[N+]([O-])c1cccc(/C=C/S(=O)(=O)F)c1                IC50  4.14 µM
3          O=S(=O)(F)/C=C/c1cc(Cl)cc(Cl)c1                IC50  8.79 µM
4      COc1cc(/C=C/C=C/S(=O)(=O)F)cc(OC)c1                IC50  6.92 µM
5          O=C(O)c1ccc(/C=C/S(=O)(=O)F)cc1                IC50  45.1 µM

----------
- Test system: human breast cancer cell MDA-MB-231
- Measurement Protocol: Cell proliferation (MTT) assay, MDA-MB-231
- Format: cell-based
- Run Parameters: antiproliferative, MTT, 48 h exposure; read-out: IC50 MDA-MB-231
In plain terms, low IC50, meaning strictly below 40 µM, gives True, and everything else gives False.

> print(dat)
                          chem.smiles  answer.label
1       O=S(=O)(F)/C=C/C=C/c1ccccc1Cl          True
2         O=S(=O)(F)/C=C/c1cccc(Br)c1          True
3           COc1ccccc1/C=C/S(=O)(=O)F          True
4  O=S(=O)(F)/C=C/c1cccc2c1oc1ccccc12         False
5           O=S(=O)(F)/C=C/c1ccccc1Br          True

----------
- Tested on: human melanoma cell A375
- Measurement Protocol: Cell proliferation (MTT) assay, A375
- Assay type: cell-based
- Run Parameters: read-out: IC50 A375; antiproliferative, MTT, 48 h exposure
Measured Attribute: IC50 (µM)

> print(dat)
                                   compound  measured.attribute  recorded.number
1  O=[N+]([O-])c1ccc(/C=C/S(=O)(=O)F)cc1 [Compound 12]                IC50             3.58
2  O=S(=O)(F)/C=C/c1ccc2ccccc2c1 [Compound 31]                IC50             3.49
3  O=S(=O)(F)/C=C/c1cccc(/C=C/S(=O)(=O)F)c1 [Compound 70]                IC50             3.09
4  O=S(=O)(F)/C=C/C=C/c1ccc(/C=C/S(=O)(=O)F)cc1 [Compound 57]                IC50             1.58
5  O=S(=O)(F)/C=C/c1cccc(F)c1 [Compound 18]                IC50             3.82
